Entry source: ChEMBL document CHEMBL4433234

Provide the reported Activity of each item.
Assay: Toxicity in fertilized zebra fish embryo assessed as teratogenic effect by measuring malformation of spine curvature and head enlargement at 100 nM after 120 hrs post fertilization by microscopic method relative to control
Set-up: species or system Danio rerio
Details: zebrafish, 0.1 µM
Express your answer in %, writing the number without its unit.

// Activity value for Cc1cc2c(cc1-n1c(C(F)(F)F)nc3cc(C(=O)O)cnc31)C(C)(C)CCC2(C)C : 0

Cc1cc2c(cc1-n1c(C(F)(F)F)nc3cc(C(=O)O)ccc31)C(C)(C)CCC2(C)C yielded Activity of 0

The recorded Activity for C=C(c1ccc(C(=O)O)cc1)c1cc2c(cc1C)C(C)(C)CCC2(C)C [BEXAROTENE] is 100

Sure, the documented Activity for Cc1cc2c(cc1-n1nnc3cc(C(=O)O)cnc31)C(C)(C)CCC2(C)C is 0

----------
Test: Aqueous solubility in pH 7.4 PBS buffer at 1 mM after 6 hrs by HPLC analysis
Format: physicochemical
Lab note: anything with solubility at 6 h, 1000 µM at or over 300 µM counts as fulfilled; the rest go in not fulfilled.

Hi, just wondering whether Cc1cc2c(cc1-n1nnc3cc(C(=O)O)cnc31)C(C)(C)CCC2(C)C shows solubility at 6 h, 1000 µM of 300 µM or higher.
fulfilled

Is reported solubility at 6 h, 1000 µM greater than or equal to 300 µM here: Cc1cc2c(cc1-n1c(C(F)(F)F)nc3cc(C(=O)O)ccc31)C(C)(C)CCC2(C)C
not fulfilled

Entry C=C(c1ccc(C(=O)O)cc1)c1cc2c(cc1C)C(C)(C)CCC2(C)C : is its solubility at 6 h, 1000 µM no less than 300 µM?
not fulfilled

Threshold query (solubility at 6 h, 1000 µM >= 300 µM) on Cc1cc2c(cc1-n1c(C(F)(F)F)nc3cc(C(=O)O)cnc31)C(C)(C)CCC2(C)C
not fulfilled

----------
Kindly state pEC50 for each of the entries shown.
Molecular target: Retinoic acid receptor RXR-alpha (Homo sapiens, UniProt P19793)
Sequence (P19793 whole entry): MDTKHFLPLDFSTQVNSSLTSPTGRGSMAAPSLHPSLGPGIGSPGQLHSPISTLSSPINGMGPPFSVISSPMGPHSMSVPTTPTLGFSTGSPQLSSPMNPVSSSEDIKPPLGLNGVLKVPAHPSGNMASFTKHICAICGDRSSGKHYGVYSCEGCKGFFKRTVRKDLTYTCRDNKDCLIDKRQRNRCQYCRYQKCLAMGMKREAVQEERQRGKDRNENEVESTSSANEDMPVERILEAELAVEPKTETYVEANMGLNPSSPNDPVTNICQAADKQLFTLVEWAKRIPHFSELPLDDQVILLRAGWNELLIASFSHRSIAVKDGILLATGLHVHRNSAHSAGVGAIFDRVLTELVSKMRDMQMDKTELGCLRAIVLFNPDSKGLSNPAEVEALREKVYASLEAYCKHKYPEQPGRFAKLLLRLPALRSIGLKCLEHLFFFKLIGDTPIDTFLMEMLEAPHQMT
Test: Agonist activity at human RXRalpha expressed in African green monkey COS1 cells harboring CRBP2-tk-luc reporter incubated for 18 hrs by steady-glo luciferase reporter gene assay
Quick note: pEC50 values are minus log10 of concentrations in mol/L.

Case Cc1cc2c(cc1-n1c(C(F)(F)F)nc3cc(C(=O)O)cnc31)C(C)(C)CCC2(C)C , Retinoic acid receptor RXR-alpha (Homo sapiens, UniProt P19793), pEC50 recorded as 6.17

Bench note, Retinoic acid receptor RXR-alpha (Homo sapiens, UniProt P19793): entry Cc1cc2c(cc1-n1nnc3cc(C(=O)O)cnc31)C(C)(C)CCC2(C)C , its pEC50 = 6.56

----------
Assay: Toxicity in fertilized zebra fish embryos assessed as survival rate at 287 nM incubated for 120 hrs post fertilization by microscopic method relative to untreated control (reference value: 100%)
Set-up: species or system Danio rerio
Settings: zebrafish
Observed property: survival at 120 h, 0.287 µM

Per the records, this compound ( C=C(c1ccc(C(=O)O)cc1)c1cc2c(cc1C)C(C)(C)CCC2(C)C ) has survival at 120 h, 0.287 µM equal to 99%

----------
Assay: Toxicity in fertilized zebra fish embryos assessed as hatching rate at 100 nM incubated for 120 hrs post fertilization by microscopic method relative to untreated control (reference value: 100%)
Parameters: species or system Danio rerio
Conditions: zebrafish, 0.1 µM
Observed property: Activity

Measured Activity, Cc1cc2c(cc1-n1nnc3cc(C(=O)O)cnc31)C(C)(C)CCC2(C)C : 100%

Cc1cc2c(cc1-n1c(C(F)(F)F)nc3cc(C(=O)O)ccc31)C(C)(C)CCC2(C)C yielded Activity of 83%

The reported value for C=C(c1ccc(C(=O)O)cc1)c1cc2c(cc1C)C(C)(C)CCC2(C)C in terms of Activity is 67 to 100%

response.value for Cc1cc2c(cc1-n1c(C(F)(F)F)nc3cc(C(=O)O)cnc31)C(C)(C)CCC2(C)C (field: Activity) = 92%
